Tested on: MDA-MB-435
Assay Overview: In vitro tumor cell proliferation, MDA-MB-435
Assay type: cell-based
Measurement Parameters: MDA-MB-435; values given with an undefined *; trihydrochloride; read-out: In vitro Tumor Cell Proliferation (IC50, μM) Breast MDA-MB-435
Structures can show the parent of a compound that is named as a salt.
Recorded Metric: IC50 (µM)
Numbers only, in µM.

• N[C@H]1CC[C@H](Nc2nc(NC3CCN(Cc4cccc(C(F)(F)F)c4)CC3)c3ncn(C4CCCC4)c3n2)CC1 [Example 147-m, trihydrochloride] = 0.56
• N[C@H]1CC[C@H](Nc2nc(NC3CCN(Cc4ccccc4OC(F)(F)F)CC3)c3ncn(C4CCCC4)c3n2)CC1 [Example 147-ab, trihydrochloride] = 0.91

Consider the additional molecule presented here.
## Task Let me know recorded IC50 for N[C@H]1CC[C@H](Nc2nc(NC3CCN(Cc4cccc(F)c4)CC3)c3ncn(C4CCCC4)c3n2)CC1 [Example 147-j, trihydrochloride] , thanks.
## Result 0.3

====

Test system: PC-3
Assay Overview: In vitro tumor cell proliferation, PC-3
Assay type: cell-based, human
Measurement Parameters: PC-3; many values given with an undefined *; trihydrochloride; read-out: In vitro Tumor Cell Proliferation (IC50, μM) Prostate PC-3
Description: The proliferation of tumor cells was measured using a sulforhodamine B assay as described in Skehan, P., et al., J. Natl. Cancer Inst. […] Tumor cells were harvested with trypsin-EDTA, cells that excluded trypan blue were counted, added to 96-well plates and incubated overnight at 37° C. […] Alternatively, the CyQUANT cell proliferation assay was used to quantitate cell proliferation. Alternatively, the CyQUANT cell proliferation assay was used to quantify tumor cell proliferation. […]
Counter-ions that a name gives are not always drawn.
Just a reminder that ties go to n: only IC50 strictly below 0.3 µM counts as y.

## Task Strictly below 0.3 µM in IC50? N[C@H]1CC[C@H](Nc2nc(NC3CCN(Cc4ccc(F)cc4F)CC3)c3ncn(C4CCCC4)c3n2)CC1 [Example 147-h, trihydrochloride]
## Result n

## Task Strictly below 0.3 µM in IC50? COc1cc(CN2CCC(Nc3nc(N[C@H]4CC[C@H](N)CC4)nc4c3ncn4C3CCCC3)CC2)cc(OC)c1 [Example 147-c, trihydrochloride]
## Result n

## Task Strictly below 0.3 µM in IC50? N[C@H]1CC[C@H](Nc2nc(NC3CCN(Cc4cccc5ccccc45)CC3)c3ncn(C4CCCC4)c3n2)CC1 [Example 147-a, trihydrochloride]
## Result n

## Task Strictly below 0.3 µM in IC50? N[C@H]1CC[C@H](Nc2nc(NC3CCN(Cc4c(F)cccc4F)CC3)c3ncn(C4CCCC4)c3n2)CC1 [Example 147-v, trihydrochloride]
## Result n

## Task Strictly below 0.3 µM in IC50? N[C@H]1CC[C@H](Nc2nc(NC3CCN(Cc4c(F)cccc4Cl)CC3)c3ncn(C4CCCC4)c3n2)CC1 [Example 147-n, trihydrochloride]
## Result n

## Task Strictly below 0.3 µM in IC50? N[C@H]1CC[C@H](Nc2nc(NC3CCN(Cc4ccccc4)CC3)c3ncn(C4CCCC4)c3n2)CC1 [Example 33, trihydrochloride]
## Result y

====

Tested on: A549
Assay Overview: In vitro tumor cell proliferation, A549
Format: cell-based, human
Measurement Parameters: Homo sapiens, A549, A549; many values given with an undefined *; read-out: In vitro Tumor Cell Proliferation (IC50, μM) Lung A549
Structures can show the parent of a compound that is named as a salt.
Would you kindly list IC50 for each of these compounds?
Answer as a quantity: numeral, then unit.

In the examples that follow, each entry is paired with its recorded IC50.
* N[C@H]1CC[C@H](Nc2nc(NNc3ccc(Cl)cc3Cl)c3ncn(C4CCCC4)c3n2)CC1 [Example 147, dihydrochloride] | 2.7 µM
* COc1cc(CNc2nc(N[C@H]3CC[C@H](N)CC3)nc3c2ncn3C2CCCC2)cc(OC)c1 [Example 28, dihydrochloride] | 1.9 µM
* CCCCCCCCCCCCNc1nc(N[C@H]2CC[C@H](N)CC2)nc2c1ncn2C1CCCC1 [Example 36, dihydrochloride] | 5.6 µM

Each compound below has a reported value. Please supply its IC50.
1. N[C@H]1CC[C@H](Nc2nc(NNc3c(Cl)cccc3Cl)c3ncn(C4CCCC4)c3n2)CC1 [Example 20, dihydrochloride]
2. N[C@H]1CC[C@H](Nc2nc(NC3CCN(Cc4ccc(F)cc4F)CC3)c3ncn(C4CCCC4)c3n2)CC1 [Example 147-h, trihydrochloride]
3. COc1cccc(CCNc2nc(N[C@H]3CC[C@H](N)CC3)nc3c2ncn3C2CCCC2)c1 [Example 27, dihydrochloride]
4. COc1cc(CNc2nc(NC3CCC(N)CC3)nc3c2ncn3C2CCCC2)cc(OC)c1OC (centres unmarked) [Example 147-ae]
5. COc1ccc(CNc2nc(N[C@H]3CC[C@H](N)CC3)nc3c2ncn3C2CCCC2)cc1OC [Example 34, dihydrochloride]
6. N[C@H]1CC[C@H](Nc2nc(NCCNc3ccccc3)c3ncn(C4CCCC4)c3n2)CC1 [Example 31, trihydrochloride]
7. N[C@H]1CC[C@H](Nc2nc(NC3(CO)CCCC3)c3ncn(C4CCCC4)c3n2)CC1 [Example 146, dihydrochloride]
8. N[C@H]1CC[C@H](Nc2nc(NC3CCN(Cc4cc(Cl)cc(Cl)c4)CC3)c3ncn(C4CCCC4)c3n2)CC1 [Example 147-w, trihydrochloride]

## Result
["5.6 µM", "0.22 µM", "3.1 µM", "11 µM", "3.4 µM", "1.6 µM", "12 µM", "0.21 µM"]

Each compound below has a reported value. Please supply its IC50.
1. COCCCCNc1nc(N[C@H]2CC[C@H](N)CC2)nc2c1ncn2C1CCCC1 [Example 29, dihydrochloride]
2. CCCCCc1ccc(Nc2nc(N[C@H]3CC[C@H](N)CC3)nc3c2ncn3C2CCCC2)cc1 [Example 23, dihydrochloride]
3. N[C@H]1CC[C@H](Nc2nc(NCc3ccc(C(F)(F)F)cc3)c3ncn(C4CCCC4)c3n2)CC1 [Example 1, dihydrochloride]

## Result
2.9 µM
2.3 µM
0.97 µM
